src = PubChem BioAssay (NCI)

ASSAY_SUMMARY: NCI Yeast Anticancer Drug Screen. Data for the sgs1 mgt1 strain (AID 161);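 further: 0% = growth of cultures given vehicle only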
TEST_CONDITIONS: S. cerevisiae sgs1 mgt1 strain, at 50.0 µM (retest, dose inferred, filed as 5.0), active compounds read high
The panel holds about 79,000 compounds, 15% with a hit somewhere; the sample as a whole holds those more often.
MEASURED_PROPERTY: growth inhibition (%)

* CCCCOC(=O)/C=C\C(=O)NC(N)=O | 18
* O=C(Cc1ccccc1)c1ccc(O)c(Cl)c1 | 99
* Fc1ccc([I+]c2ccc(F)cc2)cc1 | 84
* CCCCNc1ccc(Nc2ccccc2)cc1 | 97
* N#CC(C#N)N=Nc1cc(Cl)ccc1Cl | 99
* CC(=O)OC(C)C(=O)NCC(C)O (stereo not given) | 9
* Oc1ccc(Cc2ccccc2Cl)c(O)c1 | 99
* CC(CC=O)CC=O | 78
* O=C(O)/C=C\C(=O)Nc1cccc2ccccc12 | 88
* CCCCCCCCCCNC(=O)CI | 99

====

The entries below come with measured growth inhibition values attached.
ASSAY_SUMMARY: NCI Yeast Anticancer Drug Screen. Data for the rad50 strain (AID 155);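 further: 0% = growth of vehicle-only cultures of the same strain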
TEST_CONDITIONS: S. cerevisiae rad50 strain growth inhibition, active compounds read high; at 50.0 µM unless noted
The panel holds about 79,000 compounds, 15% with a hit somewhere; the sample as a whole holds those more often. Activity calls are given as the source filed them. Rule as the data show it: active = growth inhibition above about 70%; inactive = the rest.
MEASURED_PROPERTY: growth inhibition

• O=C1c2cc([N+](=O)[O-])ccc2-c2ccc3c4ccc5c6c(ccc(c7ccc1c2c73)c64)C(=O)c1cc([N+](=O)[O-])ccc1-5 = 14% (inactive)
• Cc1ccc(N2CCC(O)C2)cc1 (stereo unspecified) = -19.4% (inactive)
• Cc1ccc(C)n1-n1c(Cc2ccccc2)n[nH]c1=O = -21.8% (inactive)
• COc1ccc2c(c1)[n+](=O)c(C(=O)C/C(=N/NC(=O)C[N+](C)(C)C)C(=O)Nc1cccc(C)c1C)c(C)n2O = -23.6% (inactive)
• CSc1cccc(NC(=S)NC(=O)c2ccccc2)c1 = -0.25% (inactive)
• CC1(C)C(=O)C=C(c2ccccc2)C1(O)c1ccccc1 (stereo unspecified) = -9.45% (inactive)
• Cc1cc(Cl)ccc1OCC(=O)NCCO = 33.4% (inactive)
• O=S(=O)(Cl)c1ccc(Cl)cc1 = -4.6% (inactive)
• Cc1cc(=O)n(-c2ccccc2)c(=O)[nH]1 = 1.2% (inactive)
• COc1ccc(C=Nc2ccccc2C(=O)O)cc1 = 0.2% (inactive)
• Cn1c2ccc3cc2c(=S)c2cc(ccc21)OCCOCCOCCOCCOCCO3 = 32.1% (inactive)

====

# maps each entry to its growth inhibition
ASSAY_SUMMARY: NCI Yeast Anticancer Drug Screen. Data for the sgs1 mgt1 strain (AID 161);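 further: 0% = growth of cultures given vehicle only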
TEST_CONDITIONS: S. cerevisiae sgs1 mgt1 strain, active compounds read high; at 50.0 µM unless noted
Procedure: Growth inhibition of yeast strains with defined genetic alterations is measured as a screen for potential anti-cancer activity. Selected strains with alterations in DNA damage repair or cell cycle control were exposed to compounds and growth inhibition was measured relative to vehicle treated controls. The strain used in this assay is sgs1 mgt1
This is part of a sample that, as a whole, favours compounds with a hit. Of some 79,000 tested, about 15% had one in any assay.
MEASURED_PROPERTY: growth inhibition (%)

• CC(C)(C)NCCS = -32.4
• CN(Cc1ccccc1)c1cc(=O)n(C)c(=O)[nH]1 = 35.8
• Cc1c2c(c(C)c3c1C(=O)c1cc4c(cc1C3=O)OCO4)OCO2 = -5.35
• CCN(C(=O)c1ccc(C(=O)N(CC)c2cccc(C)c2)cc1)c1cccc(C)c1 = -9.85
• CC/C(=N/NC(N)=O)c1ccc(C)cc1 = -10.2
• COC(C)(/C(C)=N/O)c1ccc(-c2ccccc2)cc1 (stereo unspecified) = 2.8
